SYSTEM TESTED: T1, oligopeptide ATYPSGHLDM (SEQ ID NO: 1) (human and mouse)
T1 construct: Synthetic peptide; positions 148 to 157 of the human AQP3 polypeptide, identical in mouse; also called peptide used for immunization; oligopeptide 5
T1 peptide: ATYPSGHLDM
ASSAY EXPLANATION: ELISA on coated peptide
ENDPOINT: binding signal (plate reader)
The response must contain the number and no unit.

stdin: Determine from records and report binding signal (plate reader) for BC-H9 (IgG) (antibody, V domains shown, also called anti AQP3 antibody BC-H9) VH: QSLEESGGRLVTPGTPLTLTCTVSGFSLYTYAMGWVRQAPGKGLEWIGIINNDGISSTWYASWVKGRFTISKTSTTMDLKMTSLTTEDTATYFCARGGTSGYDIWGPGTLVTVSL VL: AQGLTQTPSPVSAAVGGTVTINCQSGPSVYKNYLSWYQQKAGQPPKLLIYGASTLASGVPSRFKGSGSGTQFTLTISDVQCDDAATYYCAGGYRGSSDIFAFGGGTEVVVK
stdout: 3.94

stdin: Determine from records and report binding signal (plate reader) for BC-B10 (IgG) (antibody, V domains shown, also called anti AQP3 antibody BC-B10) VH: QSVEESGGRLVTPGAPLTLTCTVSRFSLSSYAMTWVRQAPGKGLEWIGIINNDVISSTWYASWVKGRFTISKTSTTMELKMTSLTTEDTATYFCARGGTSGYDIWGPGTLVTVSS VL: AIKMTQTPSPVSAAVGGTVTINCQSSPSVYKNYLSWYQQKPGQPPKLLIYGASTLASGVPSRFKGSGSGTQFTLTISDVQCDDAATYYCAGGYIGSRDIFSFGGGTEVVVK
stdout: 3.98

stdin: Determine from records and report binding signal (plate reader) for SC-B6 (IgG) (antibody, V domains shown, also called anti AQP3 antibody SC-B6) VH: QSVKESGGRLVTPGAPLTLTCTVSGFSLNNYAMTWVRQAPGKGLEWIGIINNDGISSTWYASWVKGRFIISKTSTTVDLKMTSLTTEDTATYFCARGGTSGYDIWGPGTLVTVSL VL: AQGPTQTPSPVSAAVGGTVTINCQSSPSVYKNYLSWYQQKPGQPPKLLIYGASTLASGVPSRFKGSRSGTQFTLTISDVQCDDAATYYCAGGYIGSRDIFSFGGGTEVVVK
stdout: 3.98
